tested on: Saccharomyces cerevisiae; assay: transcriptional activation domain activity (GFP:mCherry ratio, weighted mean of sorted bins, harmonized to initial dataset scale) (arbitrary fluorescence ratio units); higher = stronger transcriptional activation; details: beta-estradiol 1 µM; induction time 4 h
We begin with a simple list: items and their reported transcriptional activation domain activity.
Output spec: single numeric token, no unit.

Consider the reported transcriptional activation domain activity for these sequences:
1) MVCCAFFVVFFLIEIFIILFLCLPFFSFLFLLWEGRVGGYALWLLSVQVCVRT: 55800
2) ALEKDKKEEPKEDSKKDESKTEKKEEEDNKDENGRPKLVVKRLRKETTAAAAV: 20000
3) HHLHAFLLGLGFLFSLLICVSSSCLVSSSLLRLLLLLPRFARWIRFLLYILLL: 64400

Query string: Quick one: transcriptional activation domain activity for MVVLCPYNVLQKRERDAFLLALRRCLFAPINHPVYFSDVVFADIFTSYAKVLG ?
Result string: 44000

Query string: Quick one: transcriptional activation domain activity for MESRARISTSVILYLCARLRSIAVITYMIVVRSLSTFVYLAQRFFILLWPIIW ?
Result string: 55600

Query string: Quick one: transcriptional activation domain activity for DSSAETGPGEDPSLVLPGLHMTLMRRFALKSKDRDRVSVEILGLLIRVLGVLG ?
Result string: 59800

Query string: Quick one: transcriptional activation domain activity for MLISLLVRLGLDIFMHLYMLLLHISQFSDLLHTRSFLLILFLISGASKRLFFF ?
Result string: 51900

Query string: Quick one: transcriptional activation domain activity for SIKVTRYLLNLAHCTNDQWFYYIVFFFAELVVYTIMIVAIGSILFQWRFFCLV ?
Result string: 52100

Query string: Quick one: transcriptional activation domain activity for KDSDDESEDSDAKSKKRKKRKRVVESDEGSGSEAESKKRKKKRKAEDSDVSGS ?
Result string: 22600

Query string: Quick one: transcriptional activation domain activity for PIPLGYGSLWMYEFLYFCLLHVVFTICDGIYLLRAELTLIILLHFLLSWDEGN ?
Result string: 47600

Query string: Quick one: transcriptional activation domain activity for YIFMISLSSYSLSLINTLVSFGLLLLYTPSYRLWGWNPPFRAPKIIIFLFFLS ?
Result string: 48300

Query string: Quick one: transcriptional activation domain activity for MIIGMWLFCHVGSSFSVYHMFPLLYFRLLLCYLVFWSCFLLTFSKVSFSFLFA ?
Result string: 54400

Query string: Quick one: transcriptional activation domain activity for MITVALYIIGRGFFSFFFIFCHFTILVFLFLAAYFFLFFSCPFLLLFYFFWFT ?
Result string: 54200

Query string: Quick one: transcriptional activation domain activity for SSSSKKQNQSADGERKKPKKTDGAEKGESVRRKSDSGGKSVKSEEKTTKGIQK ?
Result string: 28800

Reference source for all entries: the supplement of paper PMC12636428
